Each record here notes measured IC50.
- Tgt: recombinant human Estrogen Receptor alpha ligand binding domain (ER alpha-LBD (GST)) (Homo sapiens (Human), UniProt P03372)
- Sequence (P03372 307-554): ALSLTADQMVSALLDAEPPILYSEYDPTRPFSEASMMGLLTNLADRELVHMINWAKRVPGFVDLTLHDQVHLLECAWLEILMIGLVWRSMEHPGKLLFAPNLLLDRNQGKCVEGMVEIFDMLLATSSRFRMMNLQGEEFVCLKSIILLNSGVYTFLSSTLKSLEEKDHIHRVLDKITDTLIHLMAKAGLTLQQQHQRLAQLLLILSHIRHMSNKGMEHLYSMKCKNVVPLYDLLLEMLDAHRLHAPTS
- Test: ERα binding assay (LanthaScreen TR-FRET competition)
Quantity: IC50 (nM)

| Compound | Reported |
| --- | --- |
| COc1cnc(NCCNCCCF)cc1[C@@H]1c2[nH]c3ccccc3c2C[C@@H](C)N1CC(F)(F)F [Example 42] | 3.7 |
| Cc1ccc2[nH]c3c(c2c1)C[C@@H](C)N(CC(F)(F)CO)[C@@H]3c1c(F)cnc(OCCNCCCF)c1F [Example 66] | 0.71 |
| COc1c(F)cc(OCCNCCCF)c(F)c1[C@@H]1c2[nH]c3ccccc3c2C[C@@H](C)N1CC(F)(F)F [Example 29] | 2 |
| CC(CN1[C@H](c2c(Cl)ccc(OCCNCCCF)c2Cl)c2[nH]c3ccc(F)cc3c2C[C@H]1C)C(=O)O (single isomer, unassigned) [Example 129] | 8.9 |
| C[C@@H]1Cc2c([nH]c3ccccc23)[C@@H](c2c(Cl)ccc(OCCNCCCF)c2F)N1C[C@H](C)C(=O)O [Example 54] | 5.9 |
| COc1ccc(OCCNCCCF)cc1[C@@H]1c2[nH]c3ccccc3c2C[C@@H](C)N1C[C@H](C)C(=O)O [Example 53] | 150 |
| Cc1c(OCCN(C)CCCF)ncc(F)c1[C@@H]1c2[nH]c3ccccc3c2C[C@@H](C)N1C(C)CC(=O)O (single isomer, unassigned) [Example 159] | 0.9 |
| COCc1ccc(OCCNCCCF)cc1[C@@H]1c2[nH]c3ccccc3c2C[C@@H](C)N1CC(F)(F)F [Example 71] | 3.4 |
| COc1ccc(NCCNCCCF)nc1[C@@H]1c2[nH]c3ccccc3c2C[C@@H](C)N1CC(F)(F)F [Example 43] | 82 |
| Cc1c(OCCN(C)CCCF)ccc(F)c1[C@@H]1c2[nH]c3ccccc3c2C[C@@H](C(F)(F)F)N1C[C@H](C)C(=O)O [Example 149] | 1.5 |
| C[C@@H]1Cc2c([nH]c3ccccc23)[C@@H](c2c(Cl)ccc(OCCNCCCF)c2Cl)N1C[C@H](C)C(=O)O [Example 128] | 3.4 |
| Cc1c(OCCNCCCF)ncc(F)c1[C@@H]1c2[nH]c3ccccc3c2C[C@@H](C)N1CC(F)(F)CO [Example 110] | 0.43 |
| C[C@@H]1Cc2c([nH]c3ccccc23)[C@@H](c2ccnc(OCCNCCCF)c2Cl)N1CC(F)(F)CO [Example 104] | 0.72 |
| CCc1ccc(OCCNCCCF)cc1[C@@H]1c2[nH]c3ccccc3c2C[C@@H](C)N1CC(F)(F)F [Example 21] | 2.6 |
